target: M. tuberculosis FtzZ (FtsZMt) GTPase (Mycobacterium tuberculosis)
Sequence (P9WN95 whole entry): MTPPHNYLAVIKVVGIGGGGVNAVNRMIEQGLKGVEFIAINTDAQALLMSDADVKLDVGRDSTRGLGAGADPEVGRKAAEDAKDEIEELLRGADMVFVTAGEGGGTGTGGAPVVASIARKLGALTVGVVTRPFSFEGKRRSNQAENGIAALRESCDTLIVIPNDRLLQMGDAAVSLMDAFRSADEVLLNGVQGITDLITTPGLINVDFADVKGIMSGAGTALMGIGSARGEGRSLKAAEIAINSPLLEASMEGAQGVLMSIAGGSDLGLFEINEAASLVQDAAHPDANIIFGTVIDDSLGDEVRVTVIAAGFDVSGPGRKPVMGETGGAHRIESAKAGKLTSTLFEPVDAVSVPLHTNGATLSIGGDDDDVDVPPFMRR
MEASURED_QUANTITY: IC50 (µM)
Give the number; µM is assumed, so skip it.

Supply reported IC50 belonging to this compound: CC[n+]1c(/C=C/N(C)c2ccccc2)n(-c2ccccc2)c2ccc(-c3nc4ccccc4s3)cc21 [27F-02]
70
